Hey, just so you know, these numbers are from the antibiotic and cytotoxicity screens of Wong et al. (2023).

# System: HepG2
# ASSAY OVERVIEW: cytotoxicity call (relative viability < 0.9)
# CONDITION LABEL: 10 µM
Hit rate of the full screen: of about 39,000 compounds, about 3,300 (8.5%) were called active. The full list was thinned out, with actives kept by preference.
Outcome field: choose from active, inactive

- MOLECULE SMILES: "COc1ccc(S(=O)(=O)N(C)C[C@@H]2Oc3ccc(NC(=O)NC(C)C)cc3CC(=O)N([C@@H](C)CO)C[C@H]2C)cc1"
  CLASS ASSIGNMENT: "inactive"
- MOLECULE SMILES: "C[C@H](CO)N1C[C@H](C)[C@H](CN(C)Cc2ccc(Cl)c(Cl)c2)OCCCC[C@H](C)Oc2ccc(NC(=O)Nc3ccc(C(F)(F)F)cc3)cc2C1=O"
  CLASS ASSIGNMENT: "active"

Q. Please share the test call associated with CCCC(=O)Nc1ccc2c(c1)C(=O)N(C)[C@@H]1CC[C@@H](CC(=O)NCCN3CCCCC3)O[C@H]1CO2 .
A. inactive

Q. Please share the test call associated with C[C@@H]1CN([C@H](C)CO)C(=O)c2cc(NC(=O)Nc3ccc(C(F)(F)F)cc3)ccc2O[C@@H]1CN(C)Cc1ccc(C(=O)Nc2ccccc2N)cc1 .
A. active

Q. Please share the test call associated with C[C@H](CO)N1C[C@H](C)[C@H](CN(C)Cc2ccc(C(=O)Nc3ccccc3N)cc2)Oc2ccc(NC(=O)Nc3ccccc3)cc2C1=O .
A. inactive

Q. Please share the test call associated with C[C@@H]1CN([C@@H](C)CO)C(=O)c2cc(NC(=O)Nc3ccc(F)cc3)ccc2O[C@@H]1CN(C)Cc1ccc(C(=O)Nc2ccccc2N)cc1 .
A. inactive

Q. Please share the test call associated with C[C@@H]1CN([C@@H](C)CO)C(=O)c2cc(NC(=O)Nc3ccccc3)ccc2O[C@@H]1CN(C)Cc1ccc(C(=O)Nc2ccccc2N)cc1 .
A. active
